Recorded values, source paper PMC8587015.

Target: PME-1 (Protein phosphatase methylesterase 1) (Homo sapiens, UniProt Q9Y570)
Sequence (Q9Y570 whole entry, species assumed): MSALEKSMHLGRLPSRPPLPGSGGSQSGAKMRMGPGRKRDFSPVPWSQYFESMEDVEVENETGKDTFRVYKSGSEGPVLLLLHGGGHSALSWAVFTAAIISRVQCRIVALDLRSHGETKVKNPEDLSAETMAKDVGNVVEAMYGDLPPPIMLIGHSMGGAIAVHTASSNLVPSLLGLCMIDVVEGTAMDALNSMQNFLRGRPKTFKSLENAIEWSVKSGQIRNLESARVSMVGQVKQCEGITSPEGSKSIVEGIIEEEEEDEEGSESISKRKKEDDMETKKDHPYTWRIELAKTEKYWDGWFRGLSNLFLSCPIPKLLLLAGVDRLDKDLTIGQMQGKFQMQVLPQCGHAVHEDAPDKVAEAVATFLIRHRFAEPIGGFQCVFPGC
Experiment: Demethylation of PP2A by PME-1, radioactive filter binding assay
Assay type: biochemical
Conditions: GSE flavonoids / grape seed components; read-out: IC50, PP2A demethylation activity assay
pIC50: −log10 of the molar value.
readoutType: pIC50

compound=COc1ccc(-c2coc3cc(O)ccc3c2=O)cc1 assayresult="< 4.82"
compound=COc1ccc(-c2coc3cc(O)cc(O)c3c2=O)cc1 assayresult=~4.82
compound=C[C@@H]1O[C@@H](OC[C@H]2O[C@@H](Oc3cc(O)c4c(c3)O[C@H](c3ccc(O)cc3)CC4=O)[C@H](O)[C@@H](O)[C@@H]2O)[C@H](O)[C@H](O)[C@H]1O assayresult="< 4.60"
compound=O=C(O)c1cc(O)c(O)c(O)c1 assayresult="< 4.82"
compound=O=C1C[C@@H](c2ccc(O)c(O)c2)Oc2cc(O)cc(O)c21 assayresult="< 4.60"
compound=COc1cc(-c2oc3cc(O)cc(O)c3c(=O)c2O)cc(OC)c1OC assayresult="< 4.82"
compound="CC(=O)Oc1cc(O)c2c(c1)OC(c1ccc(OC(C)=O)c(OC(C)=O)c1)C(OC(C)=O)C2=O (stereo not drawn)" assayresult="< 4.82"
compound=O=c1c(O)c(-c2ccc(O)cc2O)oc2cc(O)cc(O)c12 assayresult="< 4.82"
compound=Oc1cc(O)c2c(c1)O[C@H](c1ccc(O)c(O)c1)[C@@H](O)C2 assayresult="< 4.82"
compound=Oc1cccc(O)c1O assayresult=~4.82
compound=Oc1ccc(/C=C/c2cc(O)cc(O)c2)cc1 assayresult="< 4.00"
compound=Cc1ccc(O)c(O)c1 assayresult="< 4.82"
compound=O=c1cc(-c2ccc(O)cc2)oc2cc(O)cc(O)c12 assayresult="< 4.82"
compound="Oc1cc(O)c2cc(O)c(-c3ccc(O)c(O)c3)[o+]c2c1 [Cyanidin chloride]" assayresult=5.37
compound=COc1cc(C(=O)O)ccc1O assayresult="< 4.82"
compound="COC(=O)Cc1cc(=O)oc2cc(OC)c(OC)cc12 [Methyl 6,7-dimethoxycoumarin-4-acetate]" assayresult="< 4.60"
compound="O=c1cc(-c2ccc(O)c(O)c2)oc2cc(O[C@@H]3O[C@H](CO)[C@@H](O)[C@H](O)[C@H]3O)cc(O)c12 [Luteolin 7-O-B-glucoside]" assayresult="< 4.60"
compound=COc1ccc(-c2cc(=O)c3c(O)cc(O)c(-c4cc(-c5cc(=O)c6c(O)cc(OC)cc6o5)ccc4OC)c3o2)cc1 assayresult=5.96
compound=O=c1c(O)c(-c2ccc(O)c(O)c2)oc2cc(O)cc(O)c12 assayresult=5.60
compound=C[C@@H]1O[C@@H](OC[C@H]2O[C@@H](Oc3c(-c4ccc(O)c(O)c4)oc4cc(O)cc(O)c4c3=O)[C@H](O)[C@@H](O)[C@@H]2O)[C@H](O)[C@H](O)[C@H]1O assayresult="< 4.82"
compound=O=c1cc(-c2ccc(O)c(O)c2)oc2cc(O)c([C@@H]3O[C@H](CO)[C@@H](O)[C@H](O)[C@H]3O)c(O)c12 assayresult="< 4.60"
compound=Oc1cc(O)c2c(c1)O[C@H](c1ccc(O)c(O)c1)[C@H](O)[C@H]2c1c(O)cc(O)c2c1O[C@H](c1ccc(O)c(O)c1)[C@@H](O)C2 assayresult="< 4.46"
compound="COc1ccc(-c2oc3cc(O)cc(O)c3c(=O)c2O)cc1 [Kaempferide]" assayresult=5.70
compound=COc1ccc(-c2cc(=O)c3c(O)cc(O[C@@H]4O[C@H](CO[C@@H]5O[C@@H](C)[C@H](O)[C@@H](O)[C@H]5O)[C@@H](O)[C@H](O)[C@H]4O)cc3o2)cc1O assayresult=~4.60
compound="O=C(O[C@@H]1Cc2c(O)cc(O)cc2O[C@@H]1c1ccc(O)c(O)c1)c1cc(O)c(O)c(O)c1 [Epicatechin gallate]" assayresult=5.85
compound=CC(C)NC(=O)N1CC(=O)N(c2cc(Cl)cc(Cl)c2)C1=O assayresult="< 4.82"
compound=COc1cc(C(=O)O)cc(OC)c1O assayresult="< 4.82"
compound=CO/C=C(/C(=O)OC)c1ccccc1Oc1cc(Oc2ccccc2C#N)ncn1 assayresult="< 4.82"
compound="COc1cc(OC)c2c(c1)OC(c1ccc(O)cc1)CC2=O (stereo not drawn) [5,7-dimethoxy-4′hydroxyflavanone]" assayresult="< 4.60"
compound=O=c1cc(-c2ccccc2)oc2cc(O)c(O)c(O)c12 assayresult=5.47
compound="Oc1cc(O)c2c(c1)O[C@H](c1cc(O)c(O)c(O)c1)[C@H](O)C2 [Epigallocatechin]" assayresult="< 4.82"
compound=O=c1c(O)c(-c2cc(O)c(O)c(O)c2)oc2cc(O)cc(O)c12 assayresult=6.00
compound=C[C@@H]1O[C@@H](O[C@H]2[C@H](Oc3cc(O)c4c(c3)O[C@H](c3ccc(O)cc3)CC4=O)O[C@H](CO)[C@@H](O)[C@@H]2O)[C@H](O)[C@H](O)[C@H]1O assayresult="< 4.60"
